The reported measurements were obtained from ChEMBL document CHEMBL5346930.

# System: MGC-803
# Experiment Summary: cells
# Measurement Setup: Homo sapiens, MGC-803, 48 h
# Description: Antiproliferative activity against human MGC-803 cells assessed as inhibition of cell growth incubated for 48 hrs by MTT assay
Doc: threshold 100 nM (exclusive). Items with IC50 beneath it return 1 (yes); others return 0 (no).

Decide: IC50 of `COc1ccc(CN(C(=O)CSC(=S)N2CCN(c3ccc(N)cc3)CC2)c2cc(OC)c(OC)c(OC)c2)cc1O` strictly below 100 nM?
1 (yes)

# check: IC50 < 100 nM for `COc1ccc(CN(C(=O)CSC(=S)N2CCN(C3CC3)CC2)c2cc(OC)c(OC)c(OC)c2)cc1O`
0 (no)

Lab note: confirm whether the reported IC50 for this compound is below 100 nM, equality not counting. compound: `COc1ccc(CN(C(=O)CSC(=S)N2CCC(O)CC2)c2cc(OC)c(OC)c(OC)c2)cc1O`
0 (no)

Report whether reported IC50 is lower than 100 nM (strictly) for `COc1ccc(CN(C(=O)CSC(=S)N2CCN(C(=O)C3CC3)CC2)c2cc(OC)c(OC)c(OC)c2)cc1O`
0 (no)

Item `CCOC(=O)N1CCN(C(=S)SCC(=O)N(Cc2ccc(OC)c(O)c2)c2cc(OC)c(OC)c(OC)c2)CC1` : IC50 beneath 100 nM, strictly?
1 (yes)

is_below(IC50, 100 nM) for `COc1ccc(CN(C(=O)CSC(=S)N2CCN(c3ccc(O)cc3)CC2)c2cc(OC)c(OC)c(OC)c2)cc1O` ?
1 (yes)

Is the reported IC50 for COc1cc2c(c(OC)c1OC)-c1ccc(OC)c(=O)cc1[C@@H](NC(C)=O)CC2 [COLCHICINE] strictly below 100 nM?
1 (yes)

IC50 under 100 nM? Item: `COc1ccc(CN(C(=O)CSC(=S)N2CCN(CCO)CC2)c2cc(OC)c(OC)c(OC)c2)cc1O`
0 (no)

# check: IC50 < 100 nM for `COC(=O)C1CCN(C(=S)SCC(=O)N(Cc2ccc(OC)c(O)c2)c2cc(OC)c(OC)c(OC)c2)CC1`
0 (no)

Does the reported IC50 of the following compound sit strictly below 100 nM? `CCOC(=O)C1CCN(C(=S)SCC(=O)N(Cc2ccc(OC)c(O)c2)c2cc(OC)c(OC)c(OC)c2)CC1`
0 (no)

Criterion: IC50 strictly below 100 nM. Is it met by `COc1ccc(CN(C(=O)CSC(=S)N2CCN(C(C)=O)CC2)c2cc(OC)c(OC)c(OC)c2)cc1O` ?
0 (no)

Please determine if `COc1ccc(CN(C(=O)CSC(=S)N2CCN(C(=O)OC(C)(C)C)CC2)c2cc(OC)c(OC)c(OC)c2)cc1O` is below 100 nM in terms of IC50.
1 (yes)

Does `COc1ccc(CN(C(=O)CSC(=S)N2CCC(c3ccccc3)CC2)c2cc(OC)c(OC)c(OC)c2)cc1O` have IC50 strictly under 100 nM?
0 (no)

In the record for `Cc1ccc(Cn2cc(CSC(=S)N3CCN(C(=O)OC(C)(C)C)CC3)nn2)cc1` , is IC50 less than 100 nM?
0 (no)

Confirm or reject: IC50 of `COc1ccc(N2CCN(C(=S)SCC(=O)N(Cc3ccc(OC)c(O)c3)c3cc(OC)c(OC)c(OC)c3)CC2)cc1` lies strictly below 100 nM
1 (yes)

In plain terms, does `CCCCN1CCN(C(=S)SCC(=O)N(Cc2ccc(OC)c(O)c2)c2cc(OC)c(OC)c(OC)c2)CC1` come in under 100 nM for IC50?
1 (yes)

API: query returns whether the compound falls strictly under 100 nM in IC50. Query: `COc1ccc(CN(C(=O)CSC(=S)N2CCN(c3ccc(Br)cc3)CC2)c2cc(OC)c(OC)c(OC)c2)cc1O`
1 (yes)

----------
# System: MGC-803
# Experiment Summary: cells
# Measurement Setup: Homo sapiens, MGC-803, 48 h
Lab note: anything with IC50 below 200 nM is marked condition met; values at 200 nM or higher are marked condition not met.

Is 200 nM strictly greater than the compound's reported IC50? compound: `COc1ccc(CN(C(=O)CSC(=S)N2CCN(C)CC2)c2cc(OC)c(OC)c(OC)c2)cc1O`
condition not met

Consider `CCN1CCN(C(=S)SCC(=O)N(Cc2ccc(OC)c(O)c2)c2cc(OC)c(OC)c(OC)c2)CC1` . Does its IC50 lie strictly below 200 nM?
condition not met

Please let me know if `COc1ccc(CN(C(=O)CSC(=S)N2CCN(C=O)CC2)c2cc(OC)c(OC)c(OC)c2)cc1O` shows IC50 below 200 nM.
condition met

Criterion: IC50 strictly below 200 nM. Is it met by `COc1ccc(CN(C(=O)CSC(=S)N2CCN(c3ccccc3OC)CC2)c2cc(OC)c(OC)c(OC)c2)cc1O` ?
condition met

Criterion: IC50 strictly below 200 nM. Is it met by `COc1ccc(CN(C(=O)CSC(=S)N2CCC(C)CC2)c2cc(OC)c(OC)c(OC)c2)cc1O` ?
condition not met

----------
# Test system: HGC-27
# Experiment Summary: Antiproliferative activity against human HGC-27 cells assessed as inhibition of cell growth incubated for 48 hrs by MTT assay
# Format: functional, cell-based
# Measurement Setup: HGC-27, 48 h
Quantity Name: pIC50
Remember the convention: pIC50 equals -log10 of concentration in molar.

Look up pIC50: `COc1ccc(CN(C(=O)CSC(=S)N2CCN(c3ccc(N)cc3)CC2)c2cc(OC)c(OC)c(OC)c2)cc1O`
7.61

----------
# Tested on: MGC-803
# Experiment Summary: cells
# Measurement Setup: Homo sapiens, MGC-803, 48 h
pIC50: −log10 of the molar value.
Tag: true (1) if measured pIC50 is not below 7, false (0) if it is.

Quick check, pIC50 >= 7? `COc1ccc(CN(C(=O)CSC(=S)N2CCN(c3ccc(C#N)cc3)CC2)c2cc(OC)c(OC)c(OC)c2)cc1O`
true (1)

Decide: pIC50 of COc1ccc(CN(C(=O)CSC(=S)N2CCCC(C)C2)c2cc(OC)c(OC)c(OC)c2)cc1O (stereo not drawn) >= 7?
false (0)

# bool: pIC50 of `COc1ccc(CN(C(=O)CSC(=S)N2CCN(S(C)(=O)=O)CC2)c2cc(OC)c(OC)c(OC)c2)cc1O` >= 7
false (0)

Please indicate if the recorded pIC50 for `COc1ccc(CN(C(=O)CSC(=S)N2CCN(c3ccc(F)cc3)CC2)c2cc(OC)c(OC)c(OC)c2)cc1O` meets or exceeds 7.
true (1)

Check the entry `COc1ccc(CN(C(=O)CSC(=S)N2CCN(c3ccc(Cl)cc3)CC2)c2cc(OC)c(OC)c(OC)c2)cc1O` : does pIC50 equal or exceed 7?
true (1)

Can NC1CCC(N[C@@H]2C[C@H]2c2ccccc2)CC1 (stereo partly drawn) be said to have pIC50 at or above 7?
false (0)

----------
# Tested on: TE-1
# Experiment Summary: Antiproliferative activity against human TE-1 cells assessed as inhibition of cell growth incubated for 48 hrs by MTT assay
# Type: functional, cell-based
# Measurement Setup: TE-1, 48 h
Quantity Name: pIC50
Field pIC50 (float): negative decimal logarithm of the concentration in molar.

// map `COc1ccc(CN(C(=O)CSC(=S)N2CCN(c3ccc(N)cc3)CC2)c2cc(OC)c(OC)c(OC)c2)cc1O` to recorded pIC50 (system: TE-1)
7.50

----------
# Tested on: MGC-803
# Experiment Summary: cells
# Measurement Setup: Homo sapiens, MGC-803, 48 h
Quantity Name: IC50 (µM)
# value in µM; strip the unit string

Fill in: IC50 of `COc1ccc(CN(C(=O)CSC(=S)N2CCN(c3ccccc3)CC2)c2cc(OC)c(OC)c(OC)c2)cc1O` is ___
0.062

# query: IC50 of entry `C/C=C/C(=O)N(Cc1ccc(OC)c(O)c1)c1cc(OC)c(OC)c(OC)c1`
0.028

Query (compound): `COc1cccc(N2CCN(C(=S)SCC(=O)N(Cc3ccc(OC)c(O)c3)c3cc(OC)c(OC)c(OC)c3)CC2)c1` ; field requested: IC50
0.075

----------
# System: MGC-803
# Experiment Summary: cells
# Measurement Setup: Homo sapiens, MGC-803, 48 h
Give pIC50 for every item shown.
Reminder that pIC50 means the negative base-10 logarithm of the concentration expressed in mol/L.

pIC50 for `COc1ccc(CN(C(=O)CSC(=S)N2CCC(C(=O)OC(C)(C)C)CC2)c2cc(OC)c(OC)c(OC)c2)cc1O` ?
6.74

Look up pIC50 for this compound: `COc1ccc(CN(C(=O)CSC(=S)N2CCN(C(C)(C)C)CC2)c2cc(OC)c(OC)c(OC)c2)cc1O`
6.37

Fill in the blank: the reported pIC50 of `COc1ccc(CN(C(=O)CSC(=S)N2CCN(c3ccc([N+](=O)[O-])cc3)CC2)c2cc(OC)c(OC)c(OC)c2)cc1O` is ____.
7.27

For the compound shown here, `COc1ccc(CN(C(=O)CSC(=S)N2CCC(OC)CC2)c2cc(OC)c(OC)c(OC)c2)cc1O` , give the reported pIC50.
5.90
